system: HIV-1 fusion; test: gp160 induced cell-cell fusion assay (HeLa P4 / CHO-Tat10); type: cell-based; conditions: Human immunodeficiency virus 1, HeLaP4, read-out: IC50 against HIV-1 fusion (gp160 induced cell-cell fusion)
MEASURED_METRIC: IC50 (pM)
Supply the numeric figure in pM, leaving out any unit text.

Q) I have this compound here, CC(=O)N[C@@H](CCN1[C@@H]2CC[C@H]1C[C@@H](n1c(C)nc3c1CCN(C(C)=O)C3)C2)c1cccc(F)c1 [Example 1] , and I need its recorded IC50.
A) 130

Q) Quick one: CCC(=O)N1CCc2c(nc(C)n2[C@H]2C[C@H]3CC[C@@H](C2)N3CC[C@H](NC(C)=O)c2cccc(F)c2)C1 [Example 5]
A) 120

---

target: CCR5 (Homo sapiens, UniProt P51681); experiment: assay for CCR5 binding according to Combadiere et al; conditions: ligand MIP-1α; read-out: IC50 CCR5 binding (MIP-1α)
Sequence (P51681 whole entry): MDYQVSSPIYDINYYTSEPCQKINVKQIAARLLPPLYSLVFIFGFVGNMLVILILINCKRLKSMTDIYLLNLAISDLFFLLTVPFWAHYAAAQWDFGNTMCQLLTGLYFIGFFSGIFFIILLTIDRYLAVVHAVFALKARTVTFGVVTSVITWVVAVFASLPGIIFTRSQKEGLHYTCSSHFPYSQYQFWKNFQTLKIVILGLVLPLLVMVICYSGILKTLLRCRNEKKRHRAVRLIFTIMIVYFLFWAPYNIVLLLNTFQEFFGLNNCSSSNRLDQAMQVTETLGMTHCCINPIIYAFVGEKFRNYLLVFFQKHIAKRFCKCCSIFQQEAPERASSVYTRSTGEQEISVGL
MEASURED_METRIC: IC50 (nM)
Record the value in nM, omitting the unit from your answer.

Q) IC50 of CC(=O)N[C@@H](CCN1[C@@H]2CC[C@H]1C[C@@H](n1c(C)nc3c1CCN(C(=O)C(C)C)C3)C2)c1cccc(F)c1 [Example 4] on CCR5 (Homo sapiens, UniProt P51681)?
A) 7.5

---

target: CCR5 (Homo sapiens, UniProt P51681); test: assay for CCR5 binding according to Combadiere et al; conditions: ligand RANTES; read-out: IC50 CCR5 binding (RANTES)
MEASURED_METRIC: pIC50
// field semantics: pIC50 = negative decimal log of concentration (mol/L)

Q) Using the record for CC(=O)N[C@@H](CCN1[C@@H]2CC[C@H]1C[C@@H](n1c(C)nc3c1CCN(C(=O)C(C)C)C3)C2)c1cccc(F)c1 [Example 4] , report its pIC50.
A) 8.17

---

molecular target: CCR5 (Homo sapiens, UniProt P51681); test: assay for CCR5 binding according to Combadiere et al; settings: IC50 CCR5 binding (MIP-1β), ligand MIP-1β
MEASURED_METRIC: IC50

Q) # get_value(readout='IC50', item= CCC(=O)N1CCc2c(nc(C)n2[C@H]2C[C@H]3CC[C@@H](C2)N3CC[C@H](NC(C)=O)c2cccc(F)c2)C1 )
A) 2.4 nM

---

molecular target: CCR5 (Homo sapiens); assay: assay for CCR5 binding according to Combadiere et al; settings: ligand MIP-1β; read-out: IC50 CCR5 binding (MIP-1β)
MEASURED_METRIC: IC50 (nM)
# number only, unit nM dropped from output

Q) Given the compound CC(=O)N[C@@H](CCN1[C@@H]2CC[C@H]1C[C@@H](n1c(C)nc3c1CCN(C(=O)C(C)C)C3)C2)c1cccc(F)c1 , what is its reported IC50?
A) 7.3

---

biological target: CCR5 (Homo sapiens); assay: assay for CCR5 binding according to Combadiere et al; settings: IC50 CCR5 binding (RANTES), ligand RANTES
MEASURED_METRIC: IC50 (nM)
// units = nM; emit number, no label

Q) Recorded IC50 for CCC(=O)N1CCc2c(nc(C)n2[C@H]2C[C@H]3CC[C@@H](C2)N3CC[C@H](NC(C)=O)c2cccc(F)c2)C1 , please?
A) 1.9
